Can you tell me inhibition at 1 µM for the items I'm about to list?
# SYSTEM: KDR (VEGFR2) (Homo sapiens (Human))
# Sequence (P35968 20-1356): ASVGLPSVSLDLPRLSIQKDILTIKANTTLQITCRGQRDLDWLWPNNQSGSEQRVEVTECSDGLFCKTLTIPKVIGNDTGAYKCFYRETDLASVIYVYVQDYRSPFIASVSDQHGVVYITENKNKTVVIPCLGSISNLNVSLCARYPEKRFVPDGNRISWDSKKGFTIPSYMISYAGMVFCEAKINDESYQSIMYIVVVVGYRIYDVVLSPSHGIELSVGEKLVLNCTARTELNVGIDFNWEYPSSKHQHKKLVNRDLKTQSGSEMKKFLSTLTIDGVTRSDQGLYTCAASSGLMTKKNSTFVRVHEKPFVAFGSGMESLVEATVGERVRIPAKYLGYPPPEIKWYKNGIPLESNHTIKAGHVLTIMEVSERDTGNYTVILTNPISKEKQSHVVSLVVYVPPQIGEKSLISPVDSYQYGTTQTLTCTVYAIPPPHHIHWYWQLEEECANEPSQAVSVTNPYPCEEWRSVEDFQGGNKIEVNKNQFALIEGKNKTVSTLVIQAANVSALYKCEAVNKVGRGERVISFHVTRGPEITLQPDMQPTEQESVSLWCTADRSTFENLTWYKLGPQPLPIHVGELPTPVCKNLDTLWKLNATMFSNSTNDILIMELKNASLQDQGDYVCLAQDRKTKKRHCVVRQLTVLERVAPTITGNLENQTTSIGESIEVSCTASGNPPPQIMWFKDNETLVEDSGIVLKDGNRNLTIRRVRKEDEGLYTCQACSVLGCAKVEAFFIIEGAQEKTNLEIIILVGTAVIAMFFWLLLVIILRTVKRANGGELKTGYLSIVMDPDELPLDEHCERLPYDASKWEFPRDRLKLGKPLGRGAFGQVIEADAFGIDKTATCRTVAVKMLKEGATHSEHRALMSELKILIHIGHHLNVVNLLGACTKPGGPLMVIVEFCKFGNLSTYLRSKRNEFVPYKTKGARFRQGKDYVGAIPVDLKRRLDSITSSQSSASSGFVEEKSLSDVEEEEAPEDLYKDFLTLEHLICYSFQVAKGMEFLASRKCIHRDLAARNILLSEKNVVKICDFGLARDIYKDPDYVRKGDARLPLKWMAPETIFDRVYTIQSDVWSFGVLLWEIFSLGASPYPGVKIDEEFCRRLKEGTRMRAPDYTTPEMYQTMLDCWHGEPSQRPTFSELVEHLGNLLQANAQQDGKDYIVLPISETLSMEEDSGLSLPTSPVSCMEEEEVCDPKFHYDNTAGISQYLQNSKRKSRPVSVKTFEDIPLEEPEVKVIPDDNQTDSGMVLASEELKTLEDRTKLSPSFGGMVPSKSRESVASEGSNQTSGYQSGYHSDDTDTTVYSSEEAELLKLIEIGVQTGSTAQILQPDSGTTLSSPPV
# PROTOCOL SUMMARY: Z′-LYTE kinase inhibition assay (Invitrogen), KDR
# Type: biochemical
# STUDY CONDITIONS: 1 μM compound, Z′-LYTE method; read-out: % inhibition at 1 μM against KDR

Query: // returns reported inhibition at 1 µM for input `O=C(Nc1cc(F)c(F)c(C(=O)c2ccc3nccnc3c2)c1F)c1cccc(C(F)(F)F)c1`
Result: 70 to 89%

Query: Another compound to look at: `O=C(Nc1ccc(C(F)(F)F)cc1)Nc1ccc(F)c(C(=O)c2ccc3ncc(N4CCOCC4)nc3c2)c1`
Result: > 89%

Query: Another compound to look at: `O=C(Nc1ccc(F)c(C(=O)c2ccc3nccnc3c2)c1)c1ccc(Cl)c(C(F)(F)F)c1`
Result: 70 to 89%

Query: Another compound to look at: `O=C(Nc1cc(F)c(F)c(C(=O)c2ccc3nccnc3c2)c1)c1cccc(C(F)(F)F)c1`
Result: 70 to 89%

Query: Another compound to look at: `NCCNc1cnc2ccc(C(=O)c3cc(NC(=O)Nc4cccc(F)c4)ccc3F)cc2n1`
Result: > 89%

Query: Another compound to look at: `O=C(Nc1cccc(C(=O)c2ccc3ncc(N4CCCC4)nc3c2)c1)Nc1cccc(C(F)(F)F)c1`
Result: > 89%

Query: Another compound to look at: `O=C(Nc1cccc(C(F)(F)F)c1)Nc1ccc(F)c(C(=O)c2ccc3ncc(N4CCNCC4)nc3c2)c1`
Result: > 89%

The values you see were collected from patent US10759766B2.
